Overview of recorded pIC50 for various compounds
- Target: CDK2/cyclin A (Homo sapiens)
- Protocol Notes: Inhibitory activity against CDK2/cyclin A enzyme (GST-RB phosphorylation, P32-γ-ATP, scintillation counting)
- Condition Summary: 100 μM ATP, GST-RB substrate, 30° C. 30 minutes
pIC50: −log10 of the molar value.

COc1ccc2c(=O)c(O)c(-c3ccc4c(c3)OCO4)oc2c1 ... < 4.00

// returns reported pIC50 for input `O=c1c(O)c(-c2ccc(O)c(O)c2)oc2cc(O)cc(O)c12`
> 4.30

Next compound: `O=c1c(O)c(-c2ccc(O)c(O)c2)oc2c(O)c(O)ccc12`
> 5.00

And what about the compound `COc1ccc(-c2oc3c(Cl)cc(Cl)cc3c(=O)c2O)cc1` ?
< 4.00

---

- Target: CDK4/cyclin D1 (Homo sapiens, UniProt P11802)
- Sequence (P11802 whole entry, species assumed): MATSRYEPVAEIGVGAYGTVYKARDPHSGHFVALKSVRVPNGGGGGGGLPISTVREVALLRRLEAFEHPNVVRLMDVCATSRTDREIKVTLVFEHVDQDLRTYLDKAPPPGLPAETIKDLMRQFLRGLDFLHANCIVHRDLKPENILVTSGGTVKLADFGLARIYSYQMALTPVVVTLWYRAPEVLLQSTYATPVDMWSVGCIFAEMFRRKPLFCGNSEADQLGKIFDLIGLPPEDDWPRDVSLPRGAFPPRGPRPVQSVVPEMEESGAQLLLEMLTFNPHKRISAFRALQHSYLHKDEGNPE
- Sequence (P24385 whole entry partner, species assumed): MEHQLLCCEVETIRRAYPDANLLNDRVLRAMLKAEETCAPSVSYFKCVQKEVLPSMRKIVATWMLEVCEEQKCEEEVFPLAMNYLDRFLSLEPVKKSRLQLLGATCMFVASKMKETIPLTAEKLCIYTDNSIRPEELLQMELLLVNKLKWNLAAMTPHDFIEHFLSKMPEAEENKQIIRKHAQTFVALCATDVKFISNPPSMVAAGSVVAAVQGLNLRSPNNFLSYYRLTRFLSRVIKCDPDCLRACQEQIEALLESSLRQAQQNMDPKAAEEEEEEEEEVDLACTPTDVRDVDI
- Protocol Notes: Inhibitory activity against CDK4/cyclin D1 enzyme (GST-RB phosphorylation, P32-γ-ATP, scintillation counting)
- Condition Summary: CDK4/cyclin D1, 100 μM ATP, GST-RB substrate, 30° C. 30 minutes
IC50 reference

Completed entries (count: 2):
O=c1c(O)c(-c2ccc(O)c(O)c2)oc2ccc(O)cc12 [Compound 14] ... < 5 µM
COc1cccc2oc(-c3ccc(O)c(O)c3)c(O)c(=O)c12 [Compound 27] ... < 10 µM

Would you kindly share the measured IC50 for O=c1c(O)c(-c2ccc(O)c(O)c2)oc2ccc(Br)cc12 [Compound 13] ?
< 5 µM

---

- Target: CDK2/cyclin A (Homo sapiens, UniProt P24941)
- Protocol Notes: Inhibitory activity against CDK2/cyclin A enzyme (GST-RB phosphorylation, P32-γ-ATP, scintillation counting)
- Condition Summary: 100 μM ATP, GST-RB substrate, 30° C. 30 minutes
pIC50: −log10 of the molar value.
Observable: pIC50

O=c1c(O)c(-c2ccc(O)c(O)c2)oc2ccc(NS(=O)(=O)c3ccc4ccccc4c3)cc12 [Compound 31] ... 4.45
O=C(NCc1ccccc1)Nc1ccc2oc(-c3ccc(O)c(O)c3)c(O)c(=O)c2c1 [Compound 54] ... 5.64
O=C(Nc1ccc([N+](=O)[O-])cc1)Nc1ccc2oc(-c3ccc(O)c(O)c3)c(O)c(=O)c2c1 [Compound 61] ... 5.25
O=c1c(O)c(-c2ccc(O)c(O)c2)oc2ccc(NS(=O)(=O)c3ccc(C(F)(F)F)cc3)cc12 [Compound 39] ... 4.26

(A) O=C(N1CCc2ccc(S(=O)(=O)Nc3ccc4oc(-c5ccc(O)c(O)c5)c(O)c(=O)c4c3)cc2C1)C(F)(F)F [Compound 44]
(B) O=C(Nc1ccc2oc(-c3ccc(O)c(O)c3)c(O)c(=O)c2c1)Nc1ccc(Cl)cc1Cl [Compound 59]
Just curious, which one has the larger pIC50 reading, A or B ? In your reply, give the label of the chosen option.
A
(A: 5.39, B: 4.70)

---

Catalogue of IC50 readings, one per entry.
- Target: CDK2/cyclin A (Homo sapiens, UniProt P24941)
- Protocol Notes: Inhibitory activity against CDK2/cyclin A enzyme (GST-RB phosphorylation, P32-γ-ATP, scintillation counting)
- Condition Summary: 100 μM ATP, GST-RB substrate, 30° C. 30 minutes

COc1ccc2c(=O)c(O)c(-c3ccc(O)c(O)c3)oc2c1O ... < 10 µM
O=c1c(O)c(-c2ccc(O)c(O)c2)oc2c(O)cccc12 ... < 10 µM
O=c1c(O)c(-c2ccc(O)c(O)c2)oc2ccc(Br)cc12 ... < 5 µM
COc1ccc2oc(-c3ccc4c(c3)OCO4)c(O)c(=O)c2c1 ... > 100 µM
COc1cccc2oc(-c3ccc(O)c(O)c3)c(O)c(=O)c12 ... < 10 µM
COc1ccc2c(=O)cc(-c3ccccc3)oc2c1 ... > 200 µM

Which IC50 is listed for `O=c1c(O)c(-c2ccc(O)c(O)c2)oc2ccc(Cl)cc12` ?
< 5 µM

Similarly, `COc1ccc2c(=O)c(O)c(-c3ccc(Cl)cc3)oc2c1` ?
> 100 µM

Next up: `COc1ccc2oc(-c3ccc(O)c(O)c3)c(O)c(=O)c2c1`
< 10 µM

All figures here come from patent US6500846B1.
